Data credit: patent US20240116920A1

target: TYK2 (Homo sapiens); assay: biochemical
Sequence (P29597 whole entry): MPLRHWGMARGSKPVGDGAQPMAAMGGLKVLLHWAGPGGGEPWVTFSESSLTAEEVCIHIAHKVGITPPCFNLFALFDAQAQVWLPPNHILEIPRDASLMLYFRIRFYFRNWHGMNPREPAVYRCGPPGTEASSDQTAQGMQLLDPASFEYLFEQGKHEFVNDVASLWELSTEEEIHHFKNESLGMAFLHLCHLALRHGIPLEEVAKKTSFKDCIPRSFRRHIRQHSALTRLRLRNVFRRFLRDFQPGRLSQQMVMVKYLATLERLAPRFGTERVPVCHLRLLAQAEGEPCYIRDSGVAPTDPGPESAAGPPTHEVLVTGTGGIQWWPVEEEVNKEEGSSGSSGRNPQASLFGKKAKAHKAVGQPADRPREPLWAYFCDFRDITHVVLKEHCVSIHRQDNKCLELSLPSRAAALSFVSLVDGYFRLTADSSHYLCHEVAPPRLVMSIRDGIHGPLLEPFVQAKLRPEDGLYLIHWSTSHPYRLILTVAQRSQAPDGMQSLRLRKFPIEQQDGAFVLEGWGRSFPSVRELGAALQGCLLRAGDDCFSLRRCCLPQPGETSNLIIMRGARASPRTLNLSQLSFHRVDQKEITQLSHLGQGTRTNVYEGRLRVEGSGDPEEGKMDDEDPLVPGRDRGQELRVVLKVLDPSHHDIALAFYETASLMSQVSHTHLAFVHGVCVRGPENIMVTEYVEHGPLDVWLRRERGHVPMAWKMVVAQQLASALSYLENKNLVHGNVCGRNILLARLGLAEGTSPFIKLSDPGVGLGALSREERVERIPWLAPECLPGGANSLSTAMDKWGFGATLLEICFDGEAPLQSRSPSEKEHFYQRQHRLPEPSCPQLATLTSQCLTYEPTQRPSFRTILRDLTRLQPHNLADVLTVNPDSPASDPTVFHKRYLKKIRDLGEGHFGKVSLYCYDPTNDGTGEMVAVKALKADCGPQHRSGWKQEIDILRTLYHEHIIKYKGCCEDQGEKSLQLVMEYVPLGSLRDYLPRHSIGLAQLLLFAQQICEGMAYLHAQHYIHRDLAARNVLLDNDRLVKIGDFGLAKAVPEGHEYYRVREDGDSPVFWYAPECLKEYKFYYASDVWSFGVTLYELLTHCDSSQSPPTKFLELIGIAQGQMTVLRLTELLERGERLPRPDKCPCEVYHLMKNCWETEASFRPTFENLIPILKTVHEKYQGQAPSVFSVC
endpoint.label: IC50 (nM)
A number alone suffices; assume nM.

Query: Reported IC50, molecule CNC(=O)c1cnc2[nH]ccc2c1N[C@@H]1CCN(Cc2cnc(C(F)(F)F)nc2)[C@H](C)C1 (racemic) [compound 49] : ____
Reply: 36.9

====

Molecular target: JAK3 (Homo sapiens, UniProt P52333)
Sequence (P52333 1-1124): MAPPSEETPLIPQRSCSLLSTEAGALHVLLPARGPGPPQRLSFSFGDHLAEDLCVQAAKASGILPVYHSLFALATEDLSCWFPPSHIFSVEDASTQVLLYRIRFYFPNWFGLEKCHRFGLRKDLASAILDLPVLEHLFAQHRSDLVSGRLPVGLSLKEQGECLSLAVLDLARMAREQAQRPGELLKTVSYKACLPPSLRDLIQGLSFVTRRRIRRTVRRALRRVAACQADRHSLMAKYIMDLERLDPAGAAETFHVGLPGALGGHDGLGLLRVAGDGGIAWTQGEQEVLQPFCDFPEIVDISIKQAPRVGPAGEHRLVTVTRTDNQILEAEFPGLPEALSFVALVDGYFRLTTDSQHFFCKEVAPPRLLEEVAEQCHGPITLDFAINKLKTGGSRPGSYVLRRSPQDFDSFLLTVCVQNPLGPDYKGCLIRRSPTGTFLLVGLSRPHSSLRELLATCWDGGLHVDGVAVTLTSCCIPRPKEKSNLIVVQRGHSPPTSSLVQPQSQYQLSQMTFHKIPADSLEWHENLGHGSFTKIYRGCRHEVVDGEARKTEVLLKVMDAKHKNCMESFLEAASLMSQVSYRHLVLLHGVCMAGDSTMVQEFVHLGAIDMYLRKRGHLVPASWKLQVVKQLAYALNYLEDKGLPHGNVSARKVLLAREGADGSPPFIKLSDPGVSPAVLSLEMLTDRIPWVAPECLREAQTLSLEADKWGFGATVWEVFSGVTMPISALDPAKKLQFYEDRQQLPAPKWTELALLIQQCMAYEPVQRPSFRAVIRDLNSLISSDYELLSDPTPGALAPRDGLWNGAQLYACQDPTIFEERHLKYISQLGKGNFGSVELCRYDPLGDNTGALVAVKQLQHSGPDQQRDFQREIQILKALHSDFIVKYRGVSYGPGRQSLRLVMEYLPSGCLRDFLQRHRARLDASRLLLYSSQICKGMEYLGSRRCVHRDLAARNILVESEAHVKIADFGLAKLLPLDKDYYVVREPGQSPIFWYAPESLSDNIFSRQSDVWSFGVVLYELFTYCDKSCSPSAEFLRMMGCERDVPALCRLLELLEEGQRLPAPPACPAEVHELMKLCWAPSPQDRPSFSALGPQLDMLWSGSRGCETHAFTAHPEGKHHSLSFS
endpoint.label: IC50 (nM)
A number alone suffices; assume nM.

Query: Please provide the recorded IC50 for CNC(=O)c1cnc2[nH]ccc2c1N[C@@H]1CCN(Cc2cnc(C(F)(F)F)nc2)[C@H](C)C1 (racemic) [compound 49] , tested on JAK3 (Homo sapiens, UniProt P52333).
Reply: 8.39
